Biological target: Human serum albumin (HSA) (Homo sapiens)
Assay: Fluorescence quenching of human serum albumin
Settings: 298 K, 2.5 µM HSA, 0–8 µM compound, pH 7.4
ENDPOINT: Ksv (Stern-Volmer constant), HSA

Record CCn1cc(C(=O)[O][Eu]([OH])[O]C(=O)c2cn(CC)c3cc4c(cc3c2=O)OCO4)c(=O)c2cc3c(cc21)OCO3.O [Eu oxo, [Eu(oxo)(OH)(H2O)]] : what is its Ksv (Stern-Volmer constant), HSA with Human serum albumin (HSA) (Homo sapiens)?
11.25 (± 0.92) × 10^4 M^−1

----------
Below, each of the molecules is paired with its reported Kq (bimolecular quenching constant), HSA value.
Target: Human serum albumin (HSA) (Homo sapiens, UniProt P02768)
Sequence (P02768 25-609): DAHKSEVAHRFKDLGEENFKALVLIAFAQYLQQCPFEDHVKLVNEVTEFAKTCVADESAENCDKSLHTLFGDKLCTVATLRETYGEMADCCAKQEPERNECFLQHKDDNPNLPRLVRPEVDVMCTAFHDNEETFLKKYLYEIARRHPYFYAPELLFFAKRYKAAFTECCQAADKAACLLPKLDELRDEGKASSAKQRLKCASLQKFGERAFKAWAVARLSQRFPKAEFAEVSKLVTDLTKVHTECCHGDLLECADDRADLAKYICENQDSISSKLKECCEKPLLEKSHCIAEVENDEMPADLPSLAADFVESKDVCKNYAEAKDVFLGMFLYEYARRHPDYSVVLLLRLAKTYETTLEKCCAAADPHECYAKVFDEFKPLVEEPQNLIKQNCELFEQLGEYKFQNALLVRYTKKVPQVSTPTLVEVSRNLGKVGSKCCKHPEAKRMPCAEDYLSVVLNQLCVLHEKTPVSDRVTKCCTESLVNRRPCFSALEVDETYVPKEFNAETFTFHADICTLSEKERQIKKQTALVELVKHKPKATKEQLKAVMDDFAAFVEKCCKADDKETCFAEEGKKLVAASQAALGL
Experiment: Fluorescence quenching of human serum albumin
Settings: 298 K, from KSV = Kq τ0
# output: bare number, implied unit M⁻¹ s⁻¹

Known Kq (bimolecular quenching constant), HSA results, listed for orientation:
MOLECULE	RECORDED_NUMBER
CCn1cc(C(=O)[O][Y]([OH])[O]C(=O)c2cn(CC)c3cc4c(cc3c2=O)OCO4)c(=O)c2cc3c(cc21)OCO3.O [Y oxo, [Y(oxo)(OH)(H2O)]]	1.053e+13
CCn1cc(C(=O)[O][Sm]([OH])[O]C(=O)c2cn(CC)c3cc4c(cc3c2=O)OCO4)c(=O)c2cc3c(cc21)OCO3.O.O [Sm oxo, [Sm(oxo)(OH)(H2O)] · H2O]	6.56e+12
CCn1cc(C(=O)O)c(=O)c2cc3c(cc21)OCO3 [oxo, reference compound]	1.95e+12
CCn1cc(C(=O)[O][La]([OH])[O]C(=O)c2cn(CC)c3cc4c(cc3c2=O)OCO4)c(=O)c2cc3c(cc21)OCO3.O [La oxo, [La(oxo)(OH)(H2O)]]	6.82e+12

Please look at the following molecule next.
# query: Kq (bimolecular quenching constant), HSA | item CCn1cc(C(=O)[O][Eu]([OH])[O]C(=O)c2cn(CC)c3cc4c(cc3c2=O)OCO4)c(=O)c2cc3c(cc21)OCO3.O [Eu oxo, [Eu(oxo)(OH)(H2O)]] | system: Human serum albumin (HSA) (Homo sapiens, UniProt P02768)
1.125e+13

----------
Target: Apo-transferrin (apo-Tf) (Homo sapiens)
Construct: purchased Sigma Aldrich Chemical Co. (Schnelldorf, Germany)
Assay: Fluorescence quenching of apo-transferrin
Assay type: binding
Settings: Kd, apo-Tf, 298 K
ENDPOINT: Kd (µM)
Quick reminder: number only, in µM, skip the unit.

Which Kd value is on record for CCn1cc(C(=O)O)c(=O)c2cc3c(cc21)OCO3 [oxo, reference compound] ?
8.11

----------
Target: Human serum albumin (HSA) (Homo sapiens, UniProt P02768)
Assay: Fluorescence quenching of human serum albumin
Details: 298 K
List of n (Number of Binding Sites), HSA values.
Reply briefly: the number, and no unit.

// solved cases for n (Number of Binding Sites), HSA follow
MOLECULE	n (Number of Binding Sites), HSA
CCn1cc(C(=O)O)c(=O)c2cc3c(cc21)OCO3 [oxo, reference compound]	0.90
CCn1cc(C(=O)[O][Y]([OH])[O]C(=O)c2cn(CC)c3cc4c(cc3c2=O)OCO4)c(=O)c2cc3c(cc21)OCO3.O [Y oxo, [Y(oxo)(OH)(H2O)]]	1.44
CCn1cc(C(=O)[O][Eu]([OH])[O]C(=O)c2cn(CC)c3cc4c(cc3c2=O)OCO4)c(=O)c2cc3c(cc21)OCO3.O [Eu oxo, [Eu(oxo)(OH)(H2O)]]	1.11
CCn1cc(C(=O)[O][La]([OH])[O]C(=O)c2cn(CC)c3cc4c(cc3c2=O)OCO4)c(=O)c2cc3c(cc21)OCO3.O [La oxo, [La(oxo)(OH)(H2O)]]	1.14

Here is another molecule to look at.
What n (Number of Binding Sites), HSA value was documented for this molecule, CCn1cc(C(=O)[O][Sm]([OH])[O]C(=O)c2cn(CC)c3cc4c(cc3c2=O)OCO4)c(=O)c2cc3c(cc21)OCO3.O.O [Sm oxo, [Sm(oxo)(OH)(H2O)] · H2O] ?
1.11

----------
Molecular target: Apo-transferrin (apo-Tf) (Homo sapiens, UniProt P02787)
Construct: purchased Sigma Aldrich Chemical Co. (Schnelldorf, Germany)
Sequence (P02787 20-698): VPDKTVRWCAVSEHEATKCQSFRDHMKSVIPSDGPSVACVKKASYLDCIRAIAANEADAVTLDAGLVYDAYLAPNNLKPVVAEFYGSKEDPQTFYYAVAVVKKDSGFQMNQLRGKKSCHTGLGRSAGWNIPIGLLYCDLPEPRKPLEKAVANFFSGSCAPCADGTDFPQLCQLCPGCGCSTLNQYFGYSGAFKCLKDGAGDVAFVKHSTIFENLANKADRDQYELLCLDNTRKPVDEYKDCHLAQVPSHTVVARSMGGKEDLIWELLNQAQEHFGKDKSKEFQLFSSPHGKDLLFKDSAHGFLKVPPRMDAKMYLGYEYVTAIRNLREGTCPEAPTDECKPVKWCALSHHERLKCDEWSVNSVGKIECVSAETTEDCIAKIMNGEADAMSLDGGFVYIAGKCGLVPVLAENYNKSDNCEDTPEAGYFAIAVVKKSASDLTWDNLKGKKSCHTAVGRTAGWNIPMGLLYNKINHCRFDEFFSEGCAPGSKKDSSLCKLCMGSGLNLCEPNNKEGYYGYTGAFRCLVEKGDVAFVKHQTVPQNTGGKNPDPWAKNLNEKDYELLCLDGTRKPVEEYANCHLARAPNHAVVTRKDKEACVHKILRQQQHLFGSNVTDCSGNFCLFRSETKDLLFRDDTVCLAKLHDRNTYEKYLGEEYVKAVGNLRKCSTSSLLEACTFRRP
Test: Fluorescence quenching of apo-transferrin
Assay type: binding
Settings: 298 K
Rule: 1 for n (Number of Binding Sites), apo-Tf not less than 0.9, 0 for anything less.

COMPOUND	TEST_SYSTEM	CLASS
CCn1cc(C(=O)O)c(=O)c2cc3c(cc21)OCO3 [oxo, reference compound]	Apo-transferrin (apo-Tf) (Homo sapiens, UniProt P02787)	0

Please indicate if the recorded n (Number of Binding Sites), apo-Tf for CCn1cc(C(=O)[O][Y]([OH])[O]C(=O)c2cn(CC)c3cc4c(cc3c2=O)OCO4)c(=O)c2cc3c(cc21)OCO3.O [Y oxo, [Y(oxo)(OH)(H2O)]] meets or exceeds 0.9.
1

Cool, now CCn1cc(C(=O)[O][Sm]([OH])[O]C(=O)c2cn(CC)c3cc4c(cc3c2=O)OCO4)c(=O)c2cc3c(cc21)OCO3.O.O [Sm oxo, [Sm(oxo)(OH)(H2O)] · H2O]
1

Same question for CCn1cc(C(=O)[O][La]([OH])[O]C(=O)c2cn(CC)c3cc4c(cc3c2=O)OCO4)c(=O)c2cc3c(cc21)OCO3.O [La oxo, [La(oxo)(OH)(H2O)]] please.
0

----------
Molecular target: Human serum albumin (HSA) (Homo sapiens)
Assay: Fluorescence quenching of human serum albumin
Details: Kd, HSA, 298 K
ENDPOINT: pKd
Please treat pKd as minus the base-10 logarithm of the molar concentration.

I have this molecule here, CCn1cc(C(=O)O)c(=O)c2cc3c(cc21)OCO3 [oxo, reference compound] , and I need its recorded pKd.
5.14

----------
Biological target: Human serum albumin (HSA) (Homo sapiens, UniProt P02768)
Assay: Fluorescence quenching of human serum albumin
Details: 298 K
ENDPOINT: n (Hill Coefficient), HSA
Simply state the number, no unit and no words.

The examples below pair each entry with its known result.
COMPOUND	ENDPOINT	RECORDED_NUMBER
CCn1cc(C(=O)O)c(=O)c2cc3c(cc21)OCO3 [oxo, reference compound]	n (Hill Coefficient), HSA	1.62
CCn1cc(C(=O)[O][La]([OH])[O]C(=O)c2cn(CC)c3cc4c(cc3c2=O)OCO4)c(=O)c2cc3c(cc21)OCO3.O [La oxo, [La(oxo)(OH)(H2O)]]	n (Hill Coefficient), HSA	1.74
CCn1cc(C(=O)[O][Sm]([OH])[O]C(=O)c2cn(CC)c3cc4c(cc3c2=O)OCO4)c(=O)c2cc3c(cc21)OCO3.O.O [Sm oxo, [Sm(oxo)(OH)(H2O)] · H2O]	n (Hill Coefficient), HSA	1.55
CCn1cc(C(=O)[O][Eu]([OH])[O]C(=O)c2cn(CC)c3cc4c(cc3c2=O)OCO4)c(=O)c2cc3c(cc21)OCO3.O [Eu oxo, [Eu(oxo)(OH)(H2O)]]	n (Hill Coefficient), HSA	1.33

Find n (Hill Coefficient), HSA (Human serum albumin (HSA) (Homo sapiens, UniProt P02768)) for the entry CCn1cc(C(=O)[O][Y]([OH])[O]C(=O)c2cn(CC)c3cc4c(cc3c2=O)OCO4)c(=O)c2cc3c(cc21)OCO3.O [Y oxo, [Y(oxo)(OH)(H2O)]]
1.52

----------
# key: entry, value: n (Hill Coefficient), apo-Tf
Target: Apo-transferrin (apo-Tf) (Homo sapiens)
Construct: purchased Sigma Aldrich Chemical Co. (Schnelldorf, Germany)
Assay: Fluorescence quenching of apo-transferrin
Type: binding
Conditions: 298 K
Answer using only a numeral; do not append any unit.

COMPOUND	n (Hill Coefficient), apo-Tf
CCn1cc(C(=O)[O][Eu]([OH])[O]C(=O)c2cn(CC)c3cc4c(cc3c2=O)OCO4)c(=O)c2cc3c(cc21)OCO3.O [Eu oxo, [Eu(oxo)(OH)(H2O)]]	0.95
CCn1cc(C(=O)[O][Sm]([OH])[O]C(=O)c2cn(CC)c3cc4c(cc3c2=O)OCO4)c(=O)c2cc3c(cc21)OCO3.O.O [Sm oxo, [Sm(oxo)(OH)(H2O)] · H2O]	2.03
CCn1cc(C(=O)[O][La]([OH])[O]C(=O)c2cn(CC)c3cc4c(cc3c2=O)OCO4)c(=O)c2cc3c(cc21)OCO3.O [La oxo, [La(oxo)(OH)(H2O)]]	1.71
CCn1cc(C(=O)O)c(=O)c2cc3c(cc21)OCO3 [oxo, reference compound]	1.89

Now look at this entry.
What does the record list as n (Hill Coefficient), apo-Tf for CCn1cc(C(=O)[O][Y]([OH])[O]C(=O)c2cn(CC)c3cc4c(cc3c2=O)OCO4)c(=O)c2cc3c(cc21)OCO3.O [Y oxo, [Y(oxo)(OH)(H2O)]] ?
1.58
